# experimental.context: 332.15 K; 101.33 kPa; Liquid
endpoint.name: mass density (kg/m3)

compound="COCCOC [1,2-dimethoxyethane]" val=823.02
compound="ClCCCl [1,2-dichloroethane]" val=1195.18
compound="CCOCCOCCOCC [diethylene glycol diethyl ether]" val=868.92
compound="COCCOCCOC [2,5,8-trioxanonane]" val=904.6

###

# experimental.context: 325.15 K; 101.33 kPa; Liquid
endpoint.name: mass density (kg/m3)

smiles_repr=COCCOCCOC units=kg/m3 val=911.72
smiles_repr=ClCCCl units=kg/m3 val=1205.71
smiles_repr=COCCOC units=kg/m3 val=831.08
smiles_repr=CCOCCOCCOCC units=kg/m3 val=875.73

###

# experimental.context: 323.15 K; 101.33 kPa; Liquid
endpoint.name: mass density (kg/m3)

molecule="CCOCCOCCOCC [diethylene glycol diethyl ether]" val=877.66
molecule="COCCOCCOC [2,5,8-trioxanonane]" val=913.75

(1) COCCOC [1,2-dimethoxyethane]
(2) ClCCCl [1,2-dichloroethane]
### Prompt Lab log: flag the item ( 1 or 2 ) with the smaller mass density figure. Answer format: the label of the selected item.
### Response 1
(1: 833.36 kg/m3, 2: 1208.7 kg/m3)

###

# experimental.context: 286.15 K; 101.33 kPa; Liquid
endpoint.name: mass density (kg/m3)

smiles_repr=CCOCCOCCOCC val=913.46
smiles_repr=COCCOCCOC val=950.7

(A) ClCCCl
(B) COCCOC
### Prompt Could you please tell me which of these two has the higher mass density: A or B ? Answer format: the label of the selected item.
### Response A
(A: 1263.05 kg/m3, B: 874.4 kg/m3)

###

# experimental.context: 328.15 K; 101.33 kPa; Liquid
endpoint.name: mass density (kg/m3)

smiles_repr=COCCOC endpoint_name="mass density" val=827.63
smiles_repr=ClCCCl endpoint_name="mass density" val=1201.21
smiles_repr=CCOCCOCCOCC endpoint_name="mass density" val=872.81
smiles_repr=COCCOCCOC endpoint_name="mass density" val=908.67

###

# experimental.context: 306.15 K; 101.33 kPa; Liquid
endpoint.name: mass density (kg/m3)

smiles_repr=CCOCCOCCOCC units=kg/m3 val=894.15

(P) ClCCCl
(Q) COCCOC
### Prompt Could you please tell me which of these two has the higher mass density: P or Q ? Answer format: the label of the selected item.
### Response P
(P: 1233.89 kg/m3, Q: 852.46 kg/m3)

###

# experimental.context: 298.15 K; 101.33 kPa; Liquid
endpoint.name: mass density (kg/m3)

smiles_repr=CCOCCOCCOCC val=901.88
smiles_repr=COCCOC val=861.32
smiles_repr=ClCCCl val=1245.61
smiles_repr=COCCOCCOC val=938.8

###

# experimental.context: 290.15 K; 101.33 kPa; Liquid
endpoint.name: mass density (kg/m3)

(1) ClCCCl [1,2-dichloroethane]
(2) COCCOC [1,2-dimethoxyethane]
### Prompt Could you please tell me which of these two has the higher mass density: 1 or 2 ? Answer format: the label of the selected item.
### Response 1
(1: 1257.25 kg/m3, 2: 870.05 kg/m3)

###

# experimental.context: 304.15 K; 101.33 kPa; Liquid
endpoint.name: mass density (kg/m3)

smiles_repr=ClCCCl endpoint_name="mass density" units=kg/m3 val=1236.83
smiles_repr=COCCOCCOC endpoint_name="mass density" units=kg/m3 val=932.82
smiles_repr=COCCOC endpoint_name="mass density" units=kg/m3 val=854.69
smiles_repr=CCOCCOCCOCC endpoint_name="mass density" units=kg/m3 val=896.08
